Target: T1, 14-3-3ζ (human, UniProt P63104 1-245)
T1 chain: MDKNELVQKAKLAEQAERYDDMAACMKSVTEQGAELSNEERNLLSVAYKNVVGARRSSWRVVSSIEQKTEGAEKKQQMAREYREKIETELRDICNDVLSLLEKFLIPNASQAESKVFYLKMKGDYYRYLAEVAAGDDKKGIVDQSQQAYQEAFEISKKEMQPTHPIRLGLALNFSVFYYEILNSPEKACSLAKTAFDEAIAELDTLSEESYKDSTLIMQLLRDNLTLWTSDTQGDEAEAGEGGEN
Experiment: FP
Non-standard residues stand in square brackets, D forms with d. No end group written: not given here. pS = N[C@@H](COP(=O)(O)O)C(=O)O
measurement-type: Kd (µM)
Hi! Could you send only the number? It should be in µM, unit omitted.

What value of measured Kd is listed for SFTDHQRLMKRRK[pS]V (also: fluorescein label, position not given here) [TASK-3 pS373 C-terminal fluorescent peptide (last 15 amino acids)] ?
1

What value of measured Kd is listed for SLSTFRGLMKRRS[pS]V (also: fluorescein label, position not given here) [TASK-1 pS393 C-terminal fluorescent peptide (last 15 amino acids)] ?
23

What value of measured Kd is listed for SFTDHQRLMKRRK[pS] (peptide, UniProt Q9NPC2 360-374, looked up, also: fluorescein label, position not given here, TASK-3 (KCNK9), human, C-terminal peptide with phosphorylated S373 but lacking the C-terminal valine V374; ends at pS373; source: synthetic peptide, bought: Peps4Life Sciences) [TASK-3 pS373 ΔV374 C-terminal fluorescent peptide] ?
3.3

All values here come from paper PMC4760375.
